Known parasite growth, % of DMSO control of a selection of molecules
test: qHTS profiling of the MIPE4 collection as inhibitors of Plasmodium falciparum (3D7) proliferation (AID 743344);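 also: scaled between DMSO vehicle wells and 0.29 µM artemisinin as full inhibition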; details: P. falciparum 3D7 in erythrocytes, SYBR Green DNA fluorescence, 72 h; at 28.5 µM unless noted

Known parasite growth, % of DMSO control results, listed for orientation:
Exercise: For the molecule shown here, `Nc1ccn(C[C@@H](CO)OCP(=O)(O)O)c(=O)n1` , give the reported parasite growth, % of DMSO control.
Key: 94% [at 9.64 µM]

Exercise: For the molecule shown here, `C[C@]12CCC(=O)C=C1CC[C@@H]1[C@H]3CC[C@](C)(O)[C@@]3(C)CC[C@@H]12` , give the reported parasite growth, % of DMSO control.
Key: 70.7% [at 57.5 µM]

Next up:
Exercise: For the molecule shown here, CCC1(c2ccc(N)cc2)CCC(=O)NC1=O (stereo not drawn) , give the reported parasite growth, % of DMSO control.
Key: 89%

###

assay: Primary qHTS to identify inhibitors of SARS-CoV-2 cell entry (AID 1645846); settings: SARS-CoV-2 pseudovirus cell entry assay, luminescence; at 57.1 µM (top of the series) unless noted; also: nearly all actives have a fitted effect of over 45% in size
Records with an inconclusive call do not appear.
Known activity change, negative = inhibition of a selection of molecules

Exercise: For the molecule shown here, `CC1(C)O[C@@H]2C[C@H]3[C@@H]4C[C@H](F)C5=CC(=O)C=C[C@]5(C)[C@@]4(F)[C@@H](O)C[C@]3(C)[C@]2(C(=O)CO)O1` , give the reported activity change, negative = inhibition.
Key: -12.3%

Exercise: For the molecule shown here, CC(C)(C)NCC(O)COc1cccc2c1C[C@H](O)[C@H](O)C2 (stereo partly drawn) , give the reported activity change, negative = inhibition.
Key: 4.34%

Exercise: For the molecule shown here, `CC(=O)NC[C@H]1CN(c2ccc(N3CCOCC3)c(F)c2)C(=O)O1` , give the reported activity change, negative = inhibition.
Key: -4.07%

Exercise: For the molecule shown here, `O=C(CO)[C@@H](O)[C@H](O)[C@@H](O)CO` , give the reported activity change, negative = inhibition.
Key: -14.3%

Exercise: For the molecule shown here, `CCCc1ccc(OCC(=O)N2CCN(C(=O)COc3ccc(CCC)cc3OC)CC2)c(OC)c1` , give the reported activity change, negative = inhibition.
Key: -6.24%

***
Exercise: For the molecule shown here, `Clc1ccc2nsnc2c1NC1=NCCN1` , give the reported activity change, negative = inhibition.
Key: -13.9%

Exercise: For the molecule shown here, `Nc1ccn([C@@H]2CS[C@H](CO)O2)c(=O)n1` , give the reported activity change, negative = inhibition.
Key: -19.3% [at 114 µM]

Exercise: For the molecule shown here, `NCC(=O)CCC(=O)O` , give the reported activity change, negative = inhibition.
Key: -19.8%

###

assay: qHTS profiling for inhibitors of Plasmodium falciparum proliferation (AID 504749);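 also: 0% = DMSO vehicle and full inhibition = artemisinin control; nearly all actives have a fitted effect of over 60% in size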; conditions: P. falciparum in erythrocytes, SYBR Green DNA, 72 h; at 28.7 µM (top of the series); parasite line B
Inconclusive results are not listed.
Reported Metric: activity, negative = inhibition (%)
Quick note: give the figure in %, leave out the unit.

Known activity, negative = inhibition results, listed for orientation:
Exercise: For the molecule shown here, `Cc1nnc2n1-c1ccc(Cl)cc1C(c1ccccc1)=NC2` , give the reported activity, negative = inhibition.
Key: 6.11

Exercise: For the molecule shown here, `O=C1c2ccccc2C(=O)C1C(=O)C(c1ccccc1)c1ccccc1` , give the reported activity, negative = inhibition.
Key: -28

Exercise: For the molecule shown here, CN1C(=O)NC(=O)C(C)(C2=CCCCC2)C1=O (centres undefined) , give the reported activity, negative = inhibition.
Key: 7.06

Exercise: For the molecule shown here, `Clc1cccc(SC2CCNCC2)n1` , give the reported activity, negative = inhibition.
Key: 2.53

Exercise: For the molecule shown here, `Nc1ccc([As](=O)(O)O)cc1` , give the reported activity, negative = inhibition.
Key: -5.31

Exercise: For the molecule shown here, `Clc1ccc2c(c1)C(c1ccccc1)=NCc1nncn1-2` , give the reported activity, negative = inhibition.
Key: 10.3

Exercise: For the molecule shown here, `O=C(O)CCCc1ccc(N(CCCl)CCCl)cc1` , give the reported activity, negative = inhibition.
Key: 1.97

Exercise: For the molecule shown here, `C=C(C)[C@H]1CN[C@H](C(=O)O)[C@H]1CC(=O)O` , give the reported activity, negative = inhibition.
Key: 11.4

***
Exercise: For the molecule shown here, `Cc1ncsc1CCCl` , give the reported activity, negative = inhibition.
Key: 0.0082

Exercise: For the molecule shown here, `Oc1ccc(Cl)cc1` , give the reported activity, negative = inhibition.
Key: -12.9

Exercise: For the molecule shown here, `COP(=S)(OC)Oc1ccc(S(=O)(=O)N(C)C)cc1` , give the reported activity, negative = inhibition.
Key: 1.31

Exercise: For the molecule shown here, `CCC1(c2ccccc2)C(=O)N(COC)C(=O)N(COC)C1=O` , give the reported activity, negative = inhibition.
Key: 7.29

Exercise: For the molecule shown here, `O=C1c2ccccc2C(=O)c2ccccc21` , give the reported activity, negative = inhibition.
Key: 6.43

Exercise: For the molecule shown here, CN1C(=O)COc2c(C(=O)NC3CN4CCC3CC4)cc(Cl)cc21 (centres undefined) , give the reported activity, negative = inhibition.
Key: 7.46

###

molecular target: Voltage-gated inwardly rectifying potassium channel KCNH2 (Homo sapiens) (UniProt Q12809); assay: qHTS Assay for Small Molecule Inhibitors of the Human hERG Channel Activity (AID 588834); settings: U2OS BacMam hERG, FluxOR thallium flux fluorescence; series mostly up to 46.1 µM;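 also: U2OS cells transduced with hERG by BacMam; top concentration of the series differs between compounds; % is scaled to controls: 0 for no effect and ±100 for the full control effect; lower thallium flux fluorescence means stronger hERG block; nearly all actives have a fitted effect of over 50% in size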
Sequence (Q12809 whole entry, looked up): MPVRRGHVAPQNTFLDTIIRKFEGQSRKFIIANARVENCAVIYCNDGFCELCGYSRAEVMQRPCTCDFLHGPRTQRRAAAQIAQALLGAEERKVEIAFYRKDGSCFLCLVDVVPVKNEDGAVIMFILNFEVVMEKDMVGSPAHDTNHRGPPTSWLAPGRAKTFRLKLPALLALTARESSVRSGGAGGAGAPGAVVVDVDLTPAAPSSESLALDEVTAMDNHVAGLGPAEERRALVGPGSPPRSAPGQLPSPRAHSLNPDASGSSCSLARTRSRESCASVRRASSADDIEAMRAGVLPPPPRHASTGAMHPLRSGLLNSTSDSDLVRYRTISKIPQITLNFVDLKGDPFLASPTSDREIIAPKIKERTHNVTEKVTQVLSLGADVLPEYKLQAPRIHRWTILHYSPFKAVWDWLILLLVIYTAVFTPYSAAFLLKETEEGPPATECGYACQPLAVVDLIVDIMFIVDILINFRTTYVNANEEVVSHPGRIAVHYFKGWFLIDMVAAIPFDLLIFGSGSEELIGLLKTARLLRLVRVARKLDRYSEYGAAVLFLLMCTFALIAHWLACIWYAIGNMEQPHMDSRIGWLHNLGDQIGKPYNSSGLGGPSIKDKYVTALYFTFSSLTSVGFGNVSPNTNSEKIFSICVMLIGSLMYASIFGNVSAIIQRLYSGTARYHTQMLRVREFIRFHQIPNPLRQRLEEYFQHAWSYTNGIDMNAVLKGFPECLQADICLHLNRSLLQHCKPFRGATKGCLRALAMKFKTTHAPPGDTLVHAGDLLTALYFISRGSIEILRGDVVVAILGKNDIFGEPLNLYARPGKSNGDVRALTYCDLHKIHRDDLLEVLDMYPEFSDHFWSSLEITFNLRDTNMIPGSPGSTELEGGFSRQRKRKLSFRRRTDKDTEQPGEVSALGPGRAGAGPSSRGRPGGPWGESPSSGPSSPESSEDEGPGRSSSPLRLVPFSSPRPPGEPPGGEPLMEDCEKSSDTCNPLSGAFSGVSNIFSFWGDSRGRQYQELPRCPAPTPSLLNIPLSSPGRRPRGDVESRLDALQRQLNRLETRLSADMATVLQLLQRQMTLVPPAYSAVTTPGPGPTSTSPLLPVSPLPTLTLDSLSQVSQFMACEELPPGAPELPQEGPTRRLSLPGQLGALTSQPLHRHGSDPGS
Results filed as inconclusive are left out. Activity calls are given as the source filed them. Calls come from the whole dose curve; as a rule, active = well fitted inhibition curve with a large enough effect; inconclusive = small, poorly fitted or top-dose-only effect; inactive = flat fitted curve, though single readings scatter.
Answer with one of the outcomes y for active, n for inactive

For orientation, consider the following solved cases.
Exercise: Hello, I am checking results. What call was entered for NC(=O)CS(=O)C(c1ccccc1)c1ccccc1 (stereo not drawn) ?
Key: n

Exercise: Hello, I am checking results. What call was entered for `CCCCCN(C)CCC(O)(P(=O)(O)O)P(=O)(O)O` ?
Key: n

Exercise: Hello, I am checking results. What call was entered for CCC1(c2ccc(N)cc2)CCC(=O)NC1=O (stereo not drawn) ?
Key: n

Exercise: Hello, I am checking results. What call was entered for `CC(C)NC(C)C` ?
Key: n

Exercise: Hello, I am checking results. What call was entered for `CCC(C)(C)c1ccc(O)cc1` ?
Key: n

Continue with the molecule presented below.
Exercise: Hello, I am checking results. What call was entered for `CCCCCCC(=O)CCCCCC/C=C/C[C@@H](O)[C@H](O)[C@@](N)(CO)C(=O)O` ?
Key: n

###

Known activity change, negative = inhibition of a selection of molecules
assay: Primary qHTS to identify inhibitors of SARS-CoV-2 cell entry (AID 1645846); conditions: SARS-CoV-2 pseudovirus cell entry assay, luminescence; at 57.1 µM (top of the series) unless noted; also: nearly all actives have a fitted effect of over 45% in size
Inconclusive results are not listed.
Quick note: give the figure in % [at 5.25 µM], leave out the unit.

Exercise: For the molecule shown here, `CC(C)(S)[C@@H](N)C(=O)O` , give the reported activity change, negative = inhibition.
Key: 2.83

Next up:
Exercise: For the molecule shown here, `CCCCCCCCCCOc1cc2c(=O)c(C(=O)OCC)c[nH]c2cc1OCC` , give the reported activity change, negative = inhibition.
Key: -22.6

###

Known max response of a selection of compounds
tested on: KB-3-1; assay: Cytotoxic Profiling of Annotated Libraries Using Quantitative High-Throughput Screening (AID 1296008); conditions: Five cell lines viability, CellTiter-Glo ATP luminescence, 48-72 h; stronger effect = lower value; also: % is scaled to controls: 0 for no effect and ±100 for the full control effect; nearly all actives have a fitted effect of over 60% in size
Inconclusive results are not listed.
Quick note: give the figure in %, leave out the unit.

Exercise: For the compound shown here, `Oc1ccc(Cl)cc1` , give the reported max response.
Key: -9.29

Exercise: For the compound shown here, CC(Cc1ccccc1)NCCn1cnc2c1c(=O)n(C)c(=O)n2C (configuration not stated) , give the reported max response.
Key: 0.853

Next up:
Exercise: For the compound shown here, O=C1Nc2ccc(Cl)cc2C(c2ccccc2Cl)=NC1O (configuration not stated) , give the reported max response.
Key: 3.46

###

conditions: Ebola virus entry assay, green fluorescence channel
Results with a measured potency or affinity are listed apart.
Criterion: efficacy strictly under -20%. Met: Condition met. Not met: Condition not met.

Exercise: Confirm or reject: efficacy of `CCN(CC)C(=O)c1ccc(O)c(OC)c1` lies strictly below -20%
Key: Condition not met

Exercise: Confirm or reject: efficacy of `Cc1cc(OI)c(C(C)C)cc1-c1cc(C(C)C)c(OI)cc1C` lies strictly below -20%
Key: Condition not met

Exercise: Confirm or reject: efficacy of O=C(c1ccccc1)C(O)c1ccccc1 (configuration not stated) lies strictly below -20%
Key: Condition not met

Exercise: Confirm or reject: efficacy of `C[C@]12CCC(=O)C=C1CC[C@@H]1[C@@H]2[C@@H](O)C[C@@]2(C)[C@H]1CC[C@]2(O)C(=O)COC(=O)CCC(=O)O` lies strictly below -20%
Key: Condition not met

Exercise: Confirm or reject: efficacy of `Cc1cc(=O)n(-c2ccccc2)n1C` lies strictly below -20%
Key: Condition met

***
Exercise: Confirm or reject: efficacy of `NC(=O)c1ncn([C@@H]2O[C@H](CO)[C@@H](O)[C@H]2O)c1O` lies strictly below -20%
Key: Condition met

Exercise: Confirm or reject: efficacy of `CC(C)=CCC1C(=O)N(c2ccccc2)N(c2ccccc2)C1=O` lies strictly below -20%
Key: Condition not met

Exercise: Confirm or reject: efficacy of `C=CCn1c(=O)n([C@@H]2O[C@H](CO)[C@@H](O)[C@H]2O)c2nc(N)[nH]c(=O)c21` lies strictly below -20%
Key: Condition not met

Exercise: Confirm or reject: efficacy of `CC(=O)Oc1ccc(C)cc1` lies strictly below -20%
Key: Condition not met

Exercise: Confirm or reject: efficacy of `Cc1cccc(C)c1NC(=O)CN1CCCCCC1` lies strictly below -20%
Key: Condition met

Exercise: Confirm or reject: efficacy of `CS(=O)(=O)c1ccc([C@@H](O)[C@@H](CF)NC(=O)C(Cl)Cl)cc1` lies strictly below -20%
Key: Condition not met

Where do these numbers come from? They come from PubChem BioAssay (NCATS).
